Origin of values: ChEMBL document CHEMBL1156243

- ASSAY_OVERVIEW: Binding affinity to amyloid beta (1 to 42) fibrils by change in fluorescence at 100 uM after 10 mins
The source made the active and inactive calls. The rule behind the calls is not given here.
Lab note: assign the record to one of active, inactive

(Q) What did the test return for `O=c1cc(-c2ccc(O)cc2)oc2cc(O)cc(O)c12` ?
(A) inactive

---

- ASSAY_OVERVIEW: Binding affinity to amyloid beta (1 to 42) oligomers by change in fluorescence at 100 uM after 10 mins
Calls of active or inactive are those of the source. How the calls were made is not given here.
Lab note: assign the record to one of YES (active), NO (inactive)

Nc1c(/N=N/c2ccc(-c3ccc(/N=N/c4cc(S(=O)(=O)O)c5ccccc5c4N)cc3)cc2)cc(S(=O)(=O)O)c2ccccc12 :: YES
N[C@@H](Cc1c[nH]c2ccccc12)C(=O)O :: YES
Nc1ccc2nc3ccc(N)cc3[s+]c2c1 :: NO
O=c1c(O)c(-c2ccc(O)cc2)oc2cc(O)cc(O)c12 :: NO
Cc1ccc2[nH]c(C(=O)O)cc2c1 :: YES
COc1cc(/C=C/C(=O)c2cccc(N)c2)ccc1O :: NO
Oc1cc(O)c2c(c1)O[C@H](c1ccc(O)c(O)c1)[C@H](O)C2 :: NO
O=C(O)c1cc(/N=N/c2ccc(-c3ccc(/N=N/c4ccc(O)c(C(=O)O)c4)cc3)cc2)ccc1O :: NO
O=c1c(O)c(-c2ccc(O)c(O)c2)oc2cc(O)cc(O)c12 :: NO
Oc1cc(O)c2c(c1)O[C@H](c1ccc(O)c(O)c1)[C@@H](O)C2 :: NO

(Q) What did the test return for `COc1cc(-c2ccc(/N=N/c3ccc4c(S(=O)(=O)O)cc(S(=O)(=O)O)c(N)c4c3O)c(OC)c2)ccc1/N=N/c1ccc2c(S(=O)(=O)O)cc(S(=O)(=O)O)c(N)c2c1O` ?
(A) NO

(Q) What did the test return for `O=C(O)c1ccccc1O` ?
(A) YES

(Q) What did the test return for `COc1cc(/C=C/C(=O)NCCCCCCCCNC(=O)/C=C/c2ccc(O)c(OC)c2)ccc1O` ?
(A) NO

(Q) What did the test return for `O=C1C=Cc2ccccc2C1=O` ?
(A) YES

(Q) What did the test return for `O=C(c1ccc(O)cc1)c1ccc(O)cc1` ?
(A) NO

(Q) What did the test return for `CC(C)OC(=O)C(C)(C)Oc1ccc(C(=O)c2ccc(Cl)cc2)cc1` ?
(A) NO

(Q) What did the test return for `Oc1ccc(Cc2ccc(O)cc2)cc1` ?
(A) NO

(Q) What did the test return for `COc1ccc(C(=O)c2cc(OC)cc(OC)c2)cc1` ?
(A) NO
